Molecular target: 5-HT2A receptor (Homo sapiens)
Construct: purchased PerkinElmer
Sequence (P28223 whole entry): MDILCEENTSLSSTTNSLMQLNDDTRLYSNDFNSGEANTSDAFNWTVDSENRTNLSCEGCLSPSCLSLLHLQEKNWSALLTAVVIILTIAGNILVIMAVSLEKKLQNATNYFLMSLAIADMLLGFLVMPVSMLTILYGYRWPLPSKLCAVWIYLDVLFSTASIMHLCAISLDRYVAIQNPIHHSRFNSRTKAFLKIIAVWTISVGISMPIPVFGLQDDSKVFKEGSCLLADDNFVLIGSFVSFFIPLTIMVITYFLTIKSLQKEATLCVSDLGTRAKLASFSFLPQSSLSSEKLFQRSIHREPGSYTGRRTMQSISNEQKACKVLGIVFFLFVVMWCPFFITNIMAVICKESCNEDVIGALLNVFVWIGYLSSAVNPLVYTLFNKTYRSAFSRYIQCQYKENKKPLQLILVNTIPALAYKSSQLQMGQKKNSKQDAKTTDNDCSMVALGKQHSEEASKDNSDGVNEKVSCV
Assay: Radioligand binding assay, serotoninergic 5-HT2A receptors
Details: binding assay result in %, Table 5a
Property Name: inhibition at 1 µM (%)
Note: unit % is implicit; provide only the numeric part.

(Q) Recorded inhibition at 1 µM for O=S(=O)(NCC1CCN(CCCc2noc3cc(F)ccc23)C1)c1cc2ccccc2o1 (stereo not shown) , please?
(A) 100

(Q) Recorded inhibition at 1 µM for Cc1cccc(S(=O)(=O)NC2CN(CCOc3cccc4[nH]ccc34)C2)c1 , please?
(A) 88

(Q) Recorded inhibition at 1 µM for Cc1c(S(=O)(=O)N[C@H]2CCN(CCCc3noc4cc(F)ccc34)C2)sc2ccc(F)cc12 , please?
(A) 99

(Q) Recorded inhibition at 1 µM for O=S(=O)(NCC1CN(CCOc2cccc3c2OCCO3)C1)c1ccc2cc(Cl)ccc2c1 , please?
(A) 44

(Q) Recorded inhibition at 1 µM for O=S(=O)(N[C@H]1CCN(CCCc2noc3cc(F)ccc23)C1)c1ccc2ccccc2c1 , please?
(A) 100

(Q) Recorded inhibition at 1 µM for O=S(=O)(NCC1CCN(CCCc2noc3cc(F)ccc23)C1)c1ccc2cc(Cl)ccc2c1 (stereo not shown) , please?
(A) 97

(Q) Recorded inhibition at 1 µM for O=S(=O)(NCC1CN(CCOc2cccc3ccccc23)C1)c1cc2ccccc2s1 , please?
(A) 99

(Q) Recorded inhibition at 1 µM for Cc1cc(S(=O)(=O)N[C@H]2CCN(CCCc3noc4cc(F)ccc34)C2)c(C)s1 , please?
(A) 99

(Q) Recorded inhibition at 1 µM for Cc1c(S(=O)(=O)NCC2CCN(CCOc3cccc4ccccc34)C2)sc2ccc(F)cc12 (stereo not shown) , please?
(A) 97

(Q) Recorded inhibition at 1 µM for O=S(=O)(NCC1CN(CCOc2cccc3ccccc23)C1)c1ccc2ccccc2c1 , please?
(A) 83

(Q) Recorded inhibition at 1 µM for O=S(=O)(NCC1CCN(CCCc2noc3cc(F)ccc23)C1)c1ccc(Cl)cc1 (stereo not shown) , please?
(A) 99

(Q) Recorded inhibition at 1 µM for Cc1cc(S(=O)(=O)N[C@@H]2CCN(CCCc3noc4cc(F)ccc34)C2)c(C)s1 , please?
(A) 99

(Q) Recorded inhibition at 1 µM for O=S(=O)(NCC1CN(CCCc2c[nH]c3ccc(Cl)cc23)C1)c1ccc2ccccc2c1 , please?
(A) 88

(Q) Recorded inhibition at 1 µM for CC(C)(C)c1ccc(S(=O)(=O)NC2CCN(CCCc3noc4cc(F)ccc34)C2)cc1 (stereo not shown) , please?
(A) 80

(Q) Recorded inhibition at 1 µM for Cn1ccc2cc(S(=O)(=O)NCC3CN(CCOc4cccc5ccccc45)C3)ccc21 , please?
(A) 69

(Q) Recorded inhibition at 1 µM for O=S(=O)(NC1CCN(CCCc2c[nH]c3ccc(F)cc23)C1)c1ccc2ccccc2c1 (stereo not shown) , please?
(A) 100

###

Biological target: D4 dopaminergic receptors (Homo sapiens, UniProt P21917)
Sequence (P21917 whole entry): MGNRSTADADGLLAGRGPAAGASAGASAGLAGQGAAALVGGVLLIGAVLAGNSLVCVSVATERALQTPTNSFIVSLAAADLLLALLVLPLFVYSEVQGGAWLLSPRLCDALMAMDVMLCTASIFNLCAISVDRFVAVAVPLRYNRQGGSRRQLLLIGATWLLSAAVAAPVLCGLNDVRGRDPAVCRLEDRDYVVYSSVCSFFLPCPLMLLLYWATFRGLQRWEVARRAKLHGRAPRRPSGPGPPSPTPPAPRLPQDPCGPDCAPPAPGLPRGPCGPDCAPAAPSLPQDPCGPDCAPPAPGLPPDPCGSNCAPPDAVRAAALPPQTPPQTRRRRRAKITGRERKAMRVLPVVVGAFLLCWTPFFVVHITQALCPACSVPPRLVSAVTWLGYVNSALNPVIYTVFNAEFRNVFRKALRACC
Assay: Cellular functional assay, D4 dopaminergic receptors
Type: cell-based
Details: antagonism, D4.4 (h), CHO cells, stimulus dopamine (100 nM)
Property Name: D4 antag [%]
Give the value; after it, write the unit.

(Q) Recorded D4 antag [%] for Cc1cc(S(=O)(=O)N[C@@H]2CCN(CCCc3noc4cc(F)ccc34)C2)c(C)s1 , please?
(A) 58%

(Q) Recorded D4 antag [%] for O=S(=O)(NC1CN(CCOc2cccc3[nH]ccc23)C1)c1ccc2ccccc2c1 , please?
(A) 32%

(Q) Recorded D4 antag [%] for O=S(=O)(NC1CCN(CCCc2c[nH]c3ccc(F)cc23)C1)c1ccc2ccccc2c1 (stereo not shown) , please?
(A) 80%

(Q) Recorded D4 antag [%] for O=S(=O)(NC1CCN(CCCc2noc3cc(F)ccc23)C1)c1cccc2ccccc12 (stereo not shown) , please?
(A) 79%

(Q) Recorded D4 antag [%] for O=S(=O)(N[C@H]1CCN(CCCc2noc3cc(F)ccc23)C1)c1csc2ccccc12 , please?
(A) 35%

(Q) Recorded D4 antag [%] for Cc1cc(S(=O)(=O)NC2CCN(CCCc3noc4cc(F)ccc34)C2)c(C)s1 (stereo not shown) , please?
(A) 73%

(Q) Recorded D4 antag [%] for O=S(=O)(N[C@@H]1CCN(CCCc2noc3cc(F)ccc23)C1)c1csc2ccccc12 , please?
(A) 84%

(Q) Recorded D4 antag [%] for O=S(=O)(NC1CCN(CCCc2noc3cc(F)ccc23)C1)c1csc2ccccc12 (stereo not shown) , please?
(A) 88%

(Q) Recorded D4 antag [%] for O=S(=O)(NC1CN(CCOc2cccc3c2OCCO3)C1)c1cccc2ccccc12 , please?
(A) 9%

(Q) Recorded D4 antag [%] for Cc1cc(S(=O)(=O)N[C@H]2CCN(CCCc3noc4cc(F)ccc34)C2)c(C)s1 , please?
(A) 22%
